assay: probe aNog binding to arrayed compounds – biochemical, biotinylated probe, 635/667 nm fluorescence, primary screen (AID 1115); conditions: small-molecule microarray, higher = more signal;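 also: probe is biotinylated aNog protein used at 0.15 µg/mL for 1 h at 4 C; z-score combines 667 nm fluorescence of each spot with its signal to noise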
Everything with composite z-score lower than 0.6 is class 0; everything else, including exactly 0.6, is class 1.

{"Compound": "Cc1ccccc1C(O)C1C=CC2C(=O)N(c3ccccc3)C(=O)C2N1Nc1ccccc1 (stereo not given)", "Discrete label": "class 0"}
{"Compound": "CCCCCC1=C2CNC(Cc3ccccc3)(C(=O)OC)C=C2C(C)C1=O (stereo not given)", "Discrete label": "class 1"}
{"Compound": "COc1cc(OC)c(C(O)C2C=CC3C(=O)N(c4ccccc4)C(=O)C3N2Nc2ccc(C(C)C)cc2)cc1Br (stereo not given)", "Discrete label": "class 1"}
{"Compound": "COc1ccc([Si](C)(C)[C@H]2[C@H](CC(=O)N3Cc4ccccc4C[C@H]3CO)O[C@@]3(C(=O)N(c4ccccc4)c4ccccc43)[C@@H]2C)cc1", "Discrete label": "class 0"}
{"Compound": "O=C1C2C=CC(C(O)c3ccc([N+](=O)[O-])cc3)N(Nc3ccccc3F)C2C(=O)N1c1ccccc1 (stereo not given)", "Discrete label": "class 1"}

# input Hello, I need to know if `COC(=O)[C@@]1(Cc2ccc(OC)cc2)[C@H]2c3cc(C(=O)N4CCCC4)n(Cc4ccc(Cl)c(C(F)(F)F)c4)c3C[C@H]2CN1C(=O)c1ccccc1` has measured composite z-score not below 0.6. Thanks!
# output class 1

# input Hello, I need to know if `CN(C)C(=O)[C@@]1(Cc2ccccc2CN=[N+]=[N-])COC(c2ccc(OCCCO)cc2)=N1` has measured composite z-score not below 0.6. Thanks!
# output class 0
